assay: COS7 lysate on small-molecule microarray, probe aHis, 635 nm (AID 1123); details: COS7 cell lysate, fluorescence, higher = more signal;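 also: z-score combines 667nm fluorescence intensity with signal-to-noise per printed compound spot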
Response field class: enum, chosen by comparing composite z-score against bottom end: < 0.7; midrange: ≥ 0.7 and < 2; top end: ≥ 2

Which category does the recorded composite z-score put Cc1ccc(S[C@]2(C(=O)NCC(F)(F)F)CC(=O)N(C3Cc4ccccc4C3)[C@@H]2c2ccc(CO)cc2I)cc1 in?
bottom end

One more compound: COc1ccc(C#Cc2ccc3c(c2)[C@]2(C(=O)N3)[C@H](c3ccc(OCCO)cc3)N3[C@H](c4ccccc4)[C@H](c4ccccc4)OC(=O)[C@H]3[C@@H]2C(=O)Nc2nc3ccccc3s2)cc1
top end

One more compound: CC1(C)C(=O)C(c2ccccc2)=C2CN3C(=O)N(CCc4ccccc4)C(=O)C3(Cc3ccccc3)C=C21 (configuration not stated)
midrange

One more compound: CCOC(=O)C1=C[C@@H](C(C)(C)C)N(S(=O)(=O)c2ccc(C)cc2)[C@H]1c1ccc(Cl)c(Cl)c1
midrange

One more compound: COc1c(C)cc(-c2cc3c(c(-c4ccccc4)n2)[Si](C(C)C)(C(C)C)O[C@H]3c2ccccc2)cc1C
bottom end

One more compound: CCOC(=O)C[C@H]1[C@H](OC(=O)c2ccc(C(=O)c3ccccc3)cc2)[C@@H](NC(=O)c2ccc3ccccc3n2)c2cc(OCCCO)ccc2N1C(=O)c1ccc2ccccc2n1
midrange

One more compound: O=C1C2C=CC(C(O)c3cccc4ccccc34)N(n3cnnc3)C2C(=O)N1Cc1ccccc1 (configuration not stated)
bottom end

One more compound: Cc1c(NC(=O)/C(C#N)=C/C=C/c2ccccc2)c(=O)n(-c2ccccc2)n1C
midrange

One more compound: COC(=O)[C@@]1(Cc2ccc(F)cc2)[C@H]2c3cc(C(=O)N(C)C)n(CCc4c[nH]c5ccc(OC)cc45)c3C[C@H]2CN1C(=O)c1ccccc1
top end

One more compound: [N-]=[N+]=Nc1ccccc1[C@@H]1OC(c2ccc(OCCCO)cc2)=N[C@]1(CCS(=O)(=O)c1ccccc1)C(=O)N1CCCCC1
midrange

One more compound: C#C[C@H]1Oc2ccccc2S(=O)(=O)N2CCC[C@@H]12
bottom end

One more compound: COCCCNC(=O)[C@@]1(Sc2ccc(C)cc2)CC(=O)N(Cc2ccccc2)[C@@H]1c1ccc(CO)cc1
top end

One more compound: C=CCC(OC(C)=O)[C@@H]1[C@@H](N(Cc2ccc(-c3ccccc3)cc2)C(=O)c2ccc(C)cc2)c2cc(OCCCO)ccc2N1C(=O)Cc1ccc(OC)cc1 (some centres not stated)
bottom end

One more compound: COc1ccc(CCNC(=O)[C@@]2(C)c3ccccc3C(=O)N(Cc3ccccc3)[C@H]2c2ccc(CO)cc2)cc1
midrange

One more compound: C[C@H]1C2[C@H](Cc3ccccc3)NC(=O)[C@]23C(=O)N[C@H](Cc2ccccc2)C(=O)N[C@H](Cc2ccccc2)C(=O)NC/C=C/CCC/C=C/C3[C@@H]2O[C@]12C (some centres not stated)
midrange

One more compound: COc1cc(NN2C(C(O)c3ccccc3)C=CC3C(=O)N(c4ccccc4)C(=O)C32)cc(OC)c1OC (configuration not stated)
top end

One more compound: CN(C)CCCC[C@@H]1NC(=O)[C@H]2C[C@@H](C(=O)NCCCCCNC(=O)CS)[C@@H](c3ccc(O)cc3)N2C1=O
bottom end

One more compound: CN1C(=O)C2C=CC(C(O)C(C)(C)C)N(Nc3ccccc3)C2C1=O (configuration not stated)
top end

One more compound: C[C@]1(C(=O)NCC(F)(F)F)c2ccccc2C(=O)N(Cc2cc(F)cc(C(F)(F)F)c2)[C@H]1c1ccc(CO)cc1
top end

One more compound: COCCOC(=O)N1C(=O)[C@@]2(c3cc(C#CCCO)ccc31)[C@H](C(=O)NC[C@H](O)c1ccccc1)[C@H]1C(=O)O[C@H](c3ccccc3)[C@H](c3ccccc3)N1[C@@H]2c1ccc(OCCO)cc1
midrange

One more compound: CCCCCCC#C[Si](O[C@H](c1ccccc1)c1cn([C@H](C)c2ccccc2)nn1)(C(C)C)C(C)C
bottom end
